target: TEAD4 TAZ (amino acids 13-57) (Homo sapiens, UniProt Q15561); assay: TEAD4-TAZ HTRF (TR-FRET) protein-protein interaction assay; type: binding; settings: TEAD4, TAZ peptide, HTRF
Sequence (Q15561 217-434 limits assumed): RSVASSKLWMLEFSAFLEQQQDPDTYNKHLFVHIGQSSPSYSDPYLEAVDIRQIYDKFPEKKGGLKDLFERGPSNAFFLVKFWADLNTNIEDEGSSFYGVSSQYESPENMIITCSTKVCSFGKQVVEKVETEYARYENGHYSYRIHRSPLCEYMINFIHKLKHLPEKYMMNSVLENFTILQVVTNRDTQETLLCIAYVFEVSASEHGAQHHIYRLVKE
Listed here: items and their measured TEAD4 TAZ HTRF combined: Max % Inhibition.
assay-endpoint: TEAD4 TAZ HTRF combined: Max % Inhibition (%)

molecule	endpoint-result
CC(C)(C)c1ccc(COc2cc(=O)n3nc(-c4ncccn4)c(C(=O)N4CC(CF)C4)c3[nH]2)cc1	56.0
Cc1cnc(-c2nn3c(=O)cc(-c4ccc(C5CCCCC5)cc4)[nH]c3c2C(=O)N2CC(CF)C2)cn1	45.5
CC1CCN1C(=O)c1nn2c(=O)cc(-c3ccc(C4CCCCC4)cc3)[nH]c2c1C(=O)N1CC(CF)C1 (single isomer, unassigned) [Enantiomer B, Example 33]	37.5
CCCCc1ccc(-c2cc(=O)n3nc(-c4nccnc4C)c(C(=O)N4CC(CF)C4)c3[nH]2)cc1	68.5
CCCCCCCCCc1cc(=O)n2nc(-c3nccnc3C)c(C(=O)N3C[C@H](CF)[C@@H]3C)c2[nH]1	56.5
Cc1nccnc1-c1nn2c(=O)cc(-c3ccc(C4CCCCC4)cc3)[nH]c2c1C(=O)N(C)C	34.5
CCn1cnc(-c2nn3c(=O)cc(-c4ccc(C5CCCCC5)cc4)[nH]c3c2C(=O)N2CC(CF)C2)c1	32.0

====

A collection of compounds and their measured TEAD1 YAP50-100 HTRF combined: Max % Inhibition
target: TEAD1 YAP50-100 (Homo sapiens); experiment: TEAD1-YAP HTRF (TR-FRET) protein-protein interaction assay; format: binding; details: TEAD1, YAP peptide 50-100, HTRF
Sequence (P28347 167-426 limits assumed): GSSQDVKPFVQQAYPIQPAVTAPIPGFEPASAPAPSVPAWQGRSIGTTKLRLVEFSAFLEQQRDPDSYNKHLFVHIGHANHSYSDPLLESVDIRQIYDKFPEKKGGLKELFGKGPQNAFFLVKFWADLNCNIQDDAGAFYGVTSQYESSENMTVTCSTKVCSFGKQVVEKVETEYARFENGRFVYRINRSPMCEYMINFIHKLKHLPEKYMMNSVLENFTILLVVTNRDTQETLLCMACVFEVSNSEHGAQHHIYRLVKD
assay-endpoint: TEAD1 YAP50-100 HTRF combined: Max % Inhibition

compound	system-tested	endpoint-result
Cc1nccnc1-c1nn2c(=O)cc(-c3ccc(CC4CCCC4)cc3)[nH]c2c1C(=O)N1C[C@H](CF)[C@@H]1C (single isomer, unassigned) [Isomer B, Example 42]	TEAD1 YAP50-100 (Homo sapiens)	68.0%
COc1ccnc(-c2nn3c(=O)cc(-c4ccc(C5CCCCC5)cc4)[nH]c3c2C(=O)N2CC(CF)C2)n1	TEAD1 YAP50-100 (Homo sapiens)	73.0%
CN(C)C(=O)c1nn2c(=O)cc(-c3ccc(C4CCCCC4)c(F)c3)[nH]c2c1C(=O)N1CC(CF)C1	TEAD1 YAP50-100 (Homo sapiens)	69.0%

====

biological target: TEAD2 YAP50-100 (Homo sapiens, UniProt Q15562); test: TEAD2-YAP HTRF (TR-FRET) protein-protein interaction assay; format: binding; details: TEAD2, YAP peptide 50-100, HTRF
Sequence (Q15562 217-447): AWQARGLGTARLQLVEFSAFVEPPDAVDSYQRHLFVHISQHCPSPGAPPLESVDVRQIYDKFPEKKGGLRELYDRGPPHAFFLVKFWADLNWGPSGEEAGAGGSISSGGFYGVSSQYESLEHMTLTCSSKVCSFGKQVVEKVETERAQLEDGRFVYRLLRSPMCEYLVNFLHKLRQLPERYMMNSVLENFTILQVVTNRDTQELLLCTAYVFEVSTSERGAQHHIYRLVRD
The reader will find reported TEAD2 YAP50-100 HTRF combined: Max % Inhibition values listed item by item below.
assay-endpoint: TEAD2 YAP50-100 HTRF combined: Max % Inhibition (%)

compound	endpoint-result
Cc1nccnc1-c1nn2c(=O)cc(-c3ccc(C4CCCCC4)cc3)[nH]c2c1C(=O)N1CC(CF)C1	68.6
Cc1nccnc1-c1nn2c(=O)cc(-c3ccc(C4CCCCC4)c(F)c3)[nH]c2c1C(=O)N1CC(CF)C1	62.5
O=C(c1c(-c2ncco2)nn2c(=O)cc(-c3ccc(C4CCCCC4)cc3)[nH]c12)N1CC(CF)C1	67.5
Cc1nccnc1-c1nn2c(=O)cc(-c3ccc(-c4ccccc4)cc3)[nH]c2c1C(=O)N1CC(CF)C1	66.5
C[C@H]1[C@@H](CF)CN1C(=O)c1c(-c2cnccn2)nn2c(=O)cc(-c3ccc(CC4CCCC4)cc3)[nH]c12 (single isomer, unassigned) [Isomer B, Example 44]	70.0
COc1nccnc1-c1nn2c(=O)cc(-c3ccc(C4CCCCC4)cc3)[nH]c2c1C(=O)N1CC(CF)C1	65.0
CCCCc1ccc(-c2cc(=O)n3nc(-c4nccnc4C)c(C(=O)N4CC(CF)C4)c3[nH]2)cc1	63.0
Cc1nccnc1-c1nn2c(=O)cc(-c3ccc(O[C@@H](c4ccccc4)C(F)(F)F)cc3)[nH]c2c1C(=O)N1CC(CF)C1	92.5
CC(CO)c1nn2c(=O)cc(-c3ccc(C4CCCCC4)cc3)[nH]c2c1C(=O)N1CC[C@@H](C#N)C1 (single isomer, unassigned) [Final product obtained using Enantiomer A from Step 4, Example 54]	65.0
O=C(c1c(-c2ncccn2)nn2c(=O)cc(-c3ccc(C4CCCCC4)cc3)[nH]c12)N1CC(CF)C1	64.8
Cc1nccnc1-c1nn2c(=O)cc(-c3ccc(C4CCC(F)(F)CC4)cc3)[nH]c2c1C(=O)N1CC(CF)C1	56.5
CC(C)(C)c1ccc(COc2cc(=O)n3nc(-c4cnccn4)c(C(=O)N4CC(CF)C4)c3[nH]2)cc1	64.5
C[C@H](CO)c1nn2c(=O)cc(-c3ccc(C4CCCCC4)cc3)[nH]c2c1C(=O)N1CC(CF)C1 (single isomer, unassigned) [Enantiomer A, Example 55]	61.5

From: patent US12692269B2
